- Test system: NDR2
- Construct: gene STK38L
- CONDITIONS_USED: Compound Concentration (nM):1000;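 further: KINOMEscan scanMAX binding as percent activity remaining versus control; lower means stronger binding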
OBSERVED_PROPERTY: Percent Control (%)
Give the value in % but do not write % after it.

Which Percent Control value belongs to O=C1Nc2ccc(C(=O)c3ccco3)cc2C1=Cc1cc(Cl)c(O)c(Cl)c1 [GW406108X] ?
88

// lookup Percent Control for COc1cccc(-n2ncc3c(N/N=C/c4ccncc4)ncnc32)c1 [GW784752X]
100

# get_value(readout='Percent Control', item= NS(=O)(=O)c1ccc(N/N=C2\C(=O)Nc3ccc(C(=O)NCCc4c[nH]cn4)cc32)cc1 [GW300660X] )
100

Using the record for `COc1ccc2cc(-c3c(-c4ccncc4)nc(-c4ccc(S(C)(=O)=O)cc4C)n3C)ccc2c1` , report its Percent Control.
63

# input compound: COc1ccc2c(-c3ccnc(Nc4cccc(OC(F)(F)F)c4)n3)cnn2n1 [GW810372X] ; wanted: its Percent Control
96

* * *

- Tested on: p38-gamma
- Construct: gene MAPK12
- CONDITIONS_USED: Compound Concentration (nM):1000
OBSERVED_PROPERTY: Percent Control (%)
Write down the numeric answer in % and omit the unit.

Sample NS(=O)(=O)c1ccc(Nc2ncc(-c3ccccc3)o2)cc1 [GW572399X] — what was its Percent Control?
100

Recorded Percent Control of CC(C)COC(=O)c1ccc2c(c1)/C(=C/Nc1ccc(S(N)(=O)=O)cc1)C(=O)N2 [GW416981X] , please.
100

Returns the measured Percent Control for the input compound. Input: CC1=C(C(=O)Nc2ccc3[nH]ncc3c2)C(c2ccc(Cl)c(Cl)c2)CC(=O)N1 (centres unmarked) [GSK299115A]
100

Returns the measured Percent Control for the input compound. Input: NS(=O)(=O)c1ccc(N/N=C2\C(=O)Nc3ccc(C(=O)NCCc4c[nH]cn4)cc32)cc1 [GW300660X]
84

Look up Percent Control: NS(=O)(=O)c1ccc(N/N=C2\C(=O)Nc3ccc(Cl)cc32)cc1 [GW280670X]
100

// Percent Control lookup, key: CC1=C(C(=O)Nc2ccc3[nH]ncc3c2)C(c2ccc3ccccc3c2)CC(=O)N1 (centres unmarked) [GSK270822A]
100

Any idea what its Percent Control is? The compound is `COc1ccc2cc(-c3c(-c4ccncc4)nc(-c4ccc(S(C)(=O)=O)cc4C)n3C)ccc2c1`
100

What does the record list as Percent Control for Cl.O=C(Nc1ccc(Oc2ccc3[nH]c(NC(=O)c4ccccc4)nc3c2)cc1)Nc1cc(C(F)(F)F)ccc1F [GW709042A] ?
82

// query Percent Control value for entry COc1ccc2[nH]c3c4[nH]c5ccc(OC)cc5c4c4c(c3c2c1)C(=O)NC4=O [GW296115X]
70

# query: Percent Control of entry COc1cccc(-n2ncc3c(N/N=C/c4ccncc4)ncnc32)c1 [GW784752X]
100

Given the compound COc1ccc2c(-c3ccnc(Nc4cccc(OC(F)(F)F)c4)n3)cnn2n1 [GW810372X] , what is its reported Percent Control?
77

Which value of Percent Control has been reported for `O=C(Nc1n[nH]c2nc(-c3ccc(O)cc3)c(Br)cc12)C1CC1` in the records?
81

# query: Percent Control of entry CN(C)CCNC(=O)Nc1ccc(N(C)c2ccnc(Nc3ccc(CS(C)(=O)=O)cc3)n2)cc1.Cl [GW830900A]
100

I would be grateful if you could share the reported Percent Control for C[C@@H](Oc1cc(-n2cnc3ccc(OC4CCN(C)CC4)cc32)sc1C(N)=O)c1ccccc1Cl [GSK579289A] .
81

Which Percent Control value is on record for CCS(=O)(=O)c1ccc(OC)c(Nc2ncc(-c3cccc(OC)c3)o2)c1 [GW580509X] ?
100

Give its Percent Control value. Item: Cl.O=C(O[C@H]1CN[C@H](C#Cc2cc3ncnc(Nc4ccc5c(cnn5Cc5ccccc5)c4)c3s2)C1)N1CCOCC1 [GSK200398A]
100

# get_value(readout='Percent Control', item= COc1cccc(-c2c[nH]c3c(N/N=C/c4ccncc4)ncnc23)c1 [GW814408X] )
100

* * *

- Test system: EGFR(L861Q)
- CONDITIONS_USED: Compound Concentration (nM):1000
Kindly supply the reported Percent Control values for the records listed here.
Form entry: value (%) — number only.

Given the entry COC(=O)Nc1nc2ccc(Oc3ccc(NC(=O)Nc4cc(C(F)(F)F)ccc4F)cc3)cc2s1.Cl [GW693917A] , report its measured Percent Control.
100

Fill blank: measured Percent Control of the compound O=C1Nc2ccc(C(=O)c3ccco3)cc2C1=Cc1cc(Cl)c(O)c(Cl)c1 [GW406108X] is ____.
57

What value of measured Percent Control is listed for CCn1c(-c2nonc2N)nc2c(C#CC(C)(C)O)nc(OCCNC)cc21.Cl [GSK949675] ?
100

# input compound: COc1ccc2[nH]c3c4[nH]c5ccc(OC)cc5c4c4c(c3c2c1)C(=O)NC4=O [GW296115X] ; wanted: its Percent Control
71

Fill in the blank: the reported Percent Control of COc1cc(N2CCN(C(C)C)CC2)ccc1Nc1nc(Nc2ccc(F)cc2C(=O)NC[C@@H](O)CO)c2cc[nH]c2n1 [GSK1392956A] is ____.
60

Using the record for NS(=O)(=O)c1ccc(N/N=C2\C(=O)Nc3ccc(Cl)cc32)cc1 [GW280670X] , report its Percent Control.
87

Any idea what Percent Control was measured for COc1cc(C)c(N(C)C(=O)CN(C)C)cc1Nc1nc(Nc2cccc(F)c2C(N)=O)c2cc[nH]c2n1 [GSK2219385] ?
82

Can you look up the measured Percent Control of COc1ccc2c(-c3ccnc(Nc4cccc(OC(F)(F)F)c4)n3)cnn2n1 [GW810372X] for me?
75

* * *

- System: QSK
- Construct: gene KIAA0999
- CONDITIONS_USED: Compound Concentration (nM):1000
OBSERVED_PROPERTY: Percent Control (%)
Write down the numeric answer in % and omit the unit.

Any idea what Percent Control came out for COc1cc(/C=N/Nc2ncnc3[nH]ncc23)ccc1O [GW578748X] on QSK?
90

Form entry - test system: QSK; read-out: Percent Control; compound: Nc1ncnc2occ(-c3ccc(NC(=O)Nc4cc(C(F)(F)F)ccc4F)cc3)c12 [GW770249X]
100

// fetch QSK Percent Control for Cl.O=S1CCN(Cc2ccc(-c3ccc4ncnc(Nc5ccc(OCc6ccccc6)c(F)c5)c4c3)o2)CC1 [GW576924A]
100

Item: COc1cc2ncn(-c3cc(O[C@H](C)c4ccccc4Cl)c(C(N)=O)s3)c2cc1OC [GSK237701A] Test system: QSK Read-out: Percent Control Value: ?
97

* * *

Would you mind telling me the reported Percent Control of each entry?
- System: CSNK1A1L
- CONDITIONS_USED: Compound Concentration (nM):1000
The reply should be a number in %, with the unit left off.

Return Percent Control measured with CSNK1A1L given this compound: COc1cc(/C=N/Nc2ncnc3[nH]ncc23)ccc1O [GW578748X]
94

What is its Percent Control for CSNK1A1L? Entry: CN(C)CCNC(=O)Nc1ccc(N(C)c2ccnc(Nc3ccc(CS(C)(=O)=O)cc3)n2)cc1.Cl [GW830900A]
85

Write down the reported Percent Control of O=C(Nc1n[nH]c2nc(-c3ccc(O)cc3)c(Br)cc12)C1CC1 [SB-725317] , test system: CSNK1A1L.
100

Request body: readout Percent Control, system CSNK1A1L, query NS(=O)(=O)c1ccc(N/N=C2\C(=O)Nc3ccc(-c4cnco4)cc32)cc1 [GW276655] . Return the value.
78

Provide the documented Percent Control with CSNK1A1L as the system for CN1CCN(C(=O)c2ccc(NC(=O)Nc3ccc(N(C)c4ccnc(Nc5ccc(CS(C)(=O)=O)cc5)n4)cc3)cc2)CC1.Cl [GW830263A]
100

Identify the measured Percent Control of NS(=O)(=O)c1ccc(N/N=C2\C(=O)Nc3ccc(C(=O)NCc4ccncc4)cc32)cc1 [GW300657X] for CSNK1A1L.
60

Lab note: need Percent Control for COc1cccc(-n2ncc3c(N/N=C/c4ccncc4)ncnc32)c1 [GW784752X] on CSNK1A1L, anyone have it?
91

Enter reported Percent Control observed with CSNK1A1L for NS(=O)(=O)c1ccc(N/N=C2\C(=O)Nc3ccc(C(=O)NCCc4c[nH]cn4)cc32)cc1 [GW300660X]
100

* * *

Would you mind telling me the reported Percent Control of each entry?
- System: SYK
- CONDITIONS_USED: Compound Concentration (nM):1000
Report the figure in % without appending any unit label.

Query (compound): CCS(=O)(=O)c1ccc(OC)c(Nc2ncc(-c3cccc(F)c3)o2)c1 [GW621970X] ; field requested: Percent Control
81

// Percent Control lookup, key: Cc1cc(O)cc(C)c1/C=C/c1cncc(C(N)=O)c1 [GW435821X]
74

Tell me the measured Percent Control of CC(C)COC(=O)c1ccc2c(c1)/C(=C/Nc1ccc(S(N)(=O)=O)cc1)C(=O)N2 [GW416981X] , please.
100

Returns the measured Percent Control for the input compound. Input: COc1cc(N2CCN(C(C)C)CC2)ccc1Nc1nc(Nc2ccc(F)cc2C(=O)NC[C@@H](O)CO)c2cc[nH]c2n1 [GSK1392956A]
92

What value of measured Percent Control is listed for `COc1cc(C)c(N(C)C(=O)CN(C)C)cc1Nc1nc(Nc2cccc(F)c2C(N)=O)c2cc[nH]c2n1` ?
100

Suppose we examine the compound O=C1Nc2ccc(C(=O)c3ccco3)cc2C1=Cc1cc(Cl)c(O)c(Cl)c1 [GW406108X] ; what Percent Control value has been reported?
100

Any idea what Percent Control was measured for COC(=O)Nc1nc2ccc(Oc3ccc(NC(=O)Nc4cc(C(F)(F)F)ccc4F)cc3)cc2s1.Cl [GW693917A] ?
98

Which measured Percent Control value corresponds to CC1=C(C(=O)Nc2ccc3[nH]ncc3c2)C(c2ccc3ccccc3c2)CC(=O)N1 (centres unmarked) [GSK270822A] ?
74

These entries and their values trace back to paper PMC7826789.
